system: IGFBP-1; test: IGFBP-1 mRNA expression in HepG2 cells; format: cell-based, human; details: Experiment 1, basal (no insulin); HepG2; 100 nM oligomeric compound
In the oligonucleotide strings, read from the 5' end, every base follows the letter of its sugar. An asterisk marks phosphorothioate; unmarked linkages are phosphodiester. Other units and linkages are bracketed, terminal groups are in braces. A string of capitals states the bases alone. e = 2'-O-(2-methoxyethyl) (MOE); [5mC] = 5-methylcytosine; d = 2'-deoxy (DNA)
measurement.type: IGFBP-1 (% UTC)

Which IGFBP-1 (% UTC) is listed for 340927 (antisense eT*eG*eA*eG*e[5mC]*dT*dA*d[5mC]*dA*dG*dT*dG*d[5mC]*dT*dT*e[5mC]*eA*eT*e[5mC]*eT*e[5mC]*eA) [compound 340927] ?
201 % UTC

Data request, read-out IGFBP-1 (% UTC), for 327922 (antisense eT*e[5mC]*eA*eG*eT*eT*eT*eT*eG*e[5mC]*eA*eT*eG*eG*eA*eT*eT*eT*eG*e[5mC]*eA*e[5mC]*eA) [compound 327922]
109 % UTC

Bench note: what IGFBP-1 (% UTC) did 327901 (antisense eT*eG*eA*eG*e[5mC]*eT*eA*e[5mC]*eA*eG*eT*eG*e[5mC]*eT*eT*e[5mC]*eA*eT*e[5mC]*eT*e[5mC]*eA) [compound 327901] show?
133 % UTC

---

Tested on: adipocytes
Test: Triglyceride accumulation assay in adipocytes
Format: cell-based, human
Details: differentiating adipocytes transfected with oligomeric compound; Table 75
Procedure: The triglyceride accumulation assay measures the synthesis of triglyceride by adipocytes. Triglyceride accumulation is measured using the Infinity™ Triglyceride reagent kit (Sigma-Aldrich, St. Louis, Mo.). […] Triglyceride accumulation is measured based on the amount of glycerol liberated from triglycerides by the enzyme lipoprotein lipase. […] Dye absorbance, which is proportional to the concentration of glycerol, is measured at 515 nm using an UV spectrophotometer. […]
measurement.type: TG (triglyceride accumulation)

Entry 340356 (antisense CUCAAUAGACUGUGAGCUCCUU; all 2'-MOE, all phosphorothioate, methylation of C and T or U not given here) [compound 340356] has what TG (triglyceride accumulation)?
43 percentage of untreated control (UTC)

---

system: HSL; test: HSL mRNA expression in adipocytes (real-time PCR); type: cell-based, human; details: adipocytes, 250 nM oligomeric compound, day nine post-transfection, relative to control (1.0); Table 16
In the oligonucleotide strings, read from the 5' end, every base follows the letter of its sugar. An asterisk marks phosphorothioate; unmarked linkages are phosphodiester. Other units and linkages are bracketed, terminal groups are in braces. A string of capitals states the bases alone. e = 2'-O-(2-methoxyethyl) (MOE); [5mC] = 5-methylcytosine
Field: HSL (mRNA expression). Provide a value for each of the substances that follow.
Keep the answer to the number alone.

Record request: HSL (mRNA expression) value, item 327901 (antisense eT*eG*eA*eG*e[5mC]*eT*eA*e[5mC]*eA*eG*eT*eG*e[5mC]*eT*eT*e[5mC]*eA*eT*e[5mC]*eT*e[5mC]*eA) [compound 327901]
0.47

For the substance shown here, 327888 (antisense eA*eA*eT*eG*e[5mC]*e[5mC]*e[5mC]*e[5mC]*eT*eA*eA*eA*eA*eA*eT*e[5mC]*e[5mC]*eT*eT*eA*eT) [compound 327888] , give the reported HSL (mRNA expression).
0.50

# lookup: HSL (mRNA expression) of 327890 (antisense eA*eG*e[5mC]*eA*e[5mC]*eA*eA*eA*e[5mC]*eT*eA*e[5mC]*eT*eA*e[5mC]*e[5mC]*eT*e[5mC]*eA) [compound 327890]
0.67

State the recorded HSL (mRNA expression) for this entry: 327938 (antisense eA*eA*e[5mC]*eA*eA*eT*eA*e[5mC]*eA*eA*e[5mC]*eT*eT*eA*e[5mC]*eT*eA*e[5mC]*e[5mC]*eT*e[5mC]*eA) [compound 327938]
0.85

Please report the recorded HSL (mRNA expression) for 327925 (antisense eT*eA*eG*e[5mC]*eT*eG*eG*eT*eT*eG*eA*eA*eG*eG*eG*eG*eA*e[5mC]*e[5mC]*eA*eA) [compound 327925] .
0.75
